- targetSystem: menin (Homo sapiens, UniProt O00255, T541A)
- Construct: Menin (a.a. 1-610-6×his tag)
- Sequence (O00255 with tags, fused parts or gaps T541A): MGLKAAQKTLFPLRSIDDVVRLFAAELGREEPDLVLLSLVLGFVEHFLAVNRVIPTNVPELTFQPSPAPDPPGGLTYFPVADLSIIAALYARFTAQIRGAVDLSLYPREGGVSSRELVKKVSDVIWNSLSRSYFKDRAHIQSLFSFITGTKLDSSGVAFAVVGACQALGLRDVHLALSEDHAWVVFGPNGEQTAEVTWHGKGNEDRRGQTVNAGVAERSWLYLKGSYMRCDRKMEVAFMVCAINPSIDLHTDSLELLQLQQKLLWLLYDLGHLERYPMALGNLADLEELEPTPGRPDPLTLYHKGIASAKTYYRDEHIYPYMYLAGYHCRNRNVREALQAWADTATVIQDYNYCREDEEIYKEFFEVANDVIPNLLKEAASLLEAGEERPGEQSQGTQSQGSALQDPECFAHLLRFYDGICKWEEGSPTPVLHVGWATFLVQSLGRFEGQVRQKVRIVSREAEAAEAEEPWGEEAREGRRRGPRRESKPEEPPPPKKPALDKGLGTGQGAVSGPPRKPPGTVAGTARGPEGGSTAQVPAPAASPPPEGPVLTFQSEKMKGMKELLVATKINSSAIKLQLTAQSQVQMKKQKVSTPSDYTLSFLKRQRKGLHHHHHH
- protocolDetails: Menin/MLL homogenous time-resolved fluorescence (HTRF) assay
- Format: binding
- conditionDetails: location 2; read-out: (2) location 2 Menin HTRF assay (IC50 (nM))
# note: exactly 60 nM is not below, so it is N; use Y for IC50 strictly under it

Answered examples (6):
# molecule, targetSystem, assignedCategory
measured = [
    ("CS(=O)(=O)N[C@H]1CC[C@@H](NC2CC3(CCN(c4ncnc5sc(CC(F)(F)F)cc45)C3)C2)CC1 (stereo partly shown)", "menin (Homo sapiens, UniProt O00255, T541A)", "Y"),
    ("O=C(NC1CC2(CCN(c3ncnc4sc(CC(F)(F)F)cc34)C2)C1)c1ccccc1 (single isomer, unassigned) [Compound 37]", "menin (Homo sapiens, UniProt O00255, T541A)", "N"),
    ("FC(F)(F)Cc1cc2c(N3CC4(CC[C@@H](NC5(c6ccccc6)CC5)C4)C3)ncnc2s1 (stereo in doubt)", "menin (Homo sapiens, UniProt O00255, T541A)", "N"),
    ("CNC(=O)c1c(F)cc(NC2CC3(CCN(c4ncnc5sc(CC(F)(F)F)cc45)C3)C2)cc1F (single isomer, unassigned) [Compound 244]", "menin (Homo sapiens, UniProt O00255, T541A)", "N"),
    ("CNc1nc(N2CCC3(CC(Nc4ccc5oc(=O)n(CCN6CCN(S(C)(=O)=O)CC6)c5c4)C3)C2)c2cc(CC(F)(F)F)sc2n1 (mixture of isomers)", "menin (Homo sapiens, UniProt O00255, T541A)", "N"),
    ("CS(=O)(=O)NCc1ccc(NC2CC3(CCN(c4ncnc5sc(CC(F)(F)F)cc45)C3)C2)cc1 (single isomer, unassigned) [Compound 367]", "menin (Homo sapiens, UniProt O00255, T541A)", "N"),
]

Check if IC50 falls below 60 nM for CN(C)CCNC(=O)c1ccc(NC2CC3(CCN(c4ncnc5sc(CC(F)(F)F)cc45)C3)C2)cc1 (single isomer, unassigned) [Compound 75] . Y

Could you do the same for N#CCc1ccc(NC2CC3(CCN(c4ncnc5sc(CC(F)(F)F)cc45)C3)C2)cc1F (mixture of isomers) , please? Y

###

- targetSystem: menin (Homo sapiens, UniProt O00255, T541A)
- Construct: Menin (a.a. 1-610-6×his tag)
- protocolDetails: Menin/MLL homogenous time-resolved fluorescence (HTRF) assay
- Assay type: binding
- conditionDetails: location 2; read-out: (2) location 2 Menin HTRF assay (IC50 (nM))
So I've got a bunch of compounds here, and I need their log10(IC50) values.
Parameter value (number): base-10 log of IC50 in nM.

# example entries with known answers
# compound, reading
measured = [
    ("CS(=O)(=O)Nc1ccc(C(=O)NC2CC3(CCN(c4ncnc5sc(CC(F)(F)F)cc45)C3)C2)cc1 (stereo not shown) [Compound 27]", 2.77),
    ("O=C1Cc2ccc(NC3CCC4(C3)CN(c3ncnc5sc(CC(F)(F)F)cc35)C4)cc2N1 (stereo not shown) [Compound 292]", 1.91),
    ("CN(C1CC2(CCN(c3ncnc4sc(CC(F)(F)F)cc34)C2)C1)S(=O)(=O)c1cccc(C(F)(F)F)c1 (mixture of isomers) [Compound 426]", 2.73),
]

Okay, here is my list. What is log10(IC50) for each of these?
1. N#CCc1ccc(N[C@H]2CC[C@@]3(CCN(c4ncnc5sc(CC(F)(F)F)cc45)C3)C2)cc1 (stereo in doubt) [Compound 145]
2. CN1CC=C(c2cc(NC3CC4(CCN(c5ncnc6sc(CC(F)(F)F)cc56)C4)C3)ccc2C(C)(C#N)C#N)CC1 (single isomer, unassigned) [Compound 247]
3. Nc1nc(N2CCC3(CC(Nc4ccc5[nH]c(=O)oc5c4)C3)C2)c2cc(CC(F)(F)F)sc2n1 (single isomer, unassigned) [Compound 386]

[1.35, 1.48, 1.94]

Okay, here is my list. What is log10(IC50) for each of these?
1. O=C(c1ccc(NC2CC3(CCN(c4ncnc5sc(CC(F)(F)F)cc45)C3)C2)nn1)N1CCOCC1 (single isomer, unassigned) [Compound 421]
2. CNc1nc(N2CC3(CCC(Nc4ccc(CC#N)cc4)C3)C2)c2cc(CC(F)(F)F)sc2n1 (stereo not shown) [Compound 400]
3. CN(C)CCNC(=O)c1ccc(NC2CC3(CCN(c4ncnc5sc(CC(F)(F)F)cc45)C3)C2)cc1 (racemic) [Compound 73]
4. Cn1c(=O)[nH]c2ccc(CN[C@@H]3CCC4(C3)CN(c3ncnc5sc(CC(F)(F)F)cc35)C4)cc21 (stereo in doubt) [Compound 110]

[2.32, 2.57, 0.40, 0.74]
